- system.name: UniProt:P09623
- Sequence (P09623 whole entry): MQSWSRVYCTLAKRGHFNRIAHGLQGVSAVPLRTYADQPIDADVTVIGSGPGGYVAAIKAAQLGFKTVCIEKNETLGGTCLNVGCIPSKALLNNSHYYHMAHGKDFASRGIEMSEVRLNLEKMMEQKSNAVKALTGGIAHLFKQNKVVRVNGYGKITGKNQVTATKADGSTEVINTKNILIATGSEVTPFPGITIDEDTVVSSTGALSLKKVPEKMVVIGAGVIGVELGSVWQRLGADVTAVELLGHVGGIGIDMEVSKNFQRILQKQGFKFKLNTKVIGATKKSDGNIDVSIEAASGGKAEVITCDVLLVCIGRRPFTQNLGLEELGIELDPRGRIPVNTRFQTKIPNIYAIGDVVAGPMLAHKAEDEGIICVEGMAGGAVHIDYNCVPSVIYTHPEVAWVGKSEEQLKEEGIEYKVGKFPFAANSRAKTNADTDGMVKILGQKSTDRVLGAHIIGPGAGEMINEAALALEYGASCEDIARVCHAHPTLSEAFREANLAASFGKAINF
- protocol.notes: The second order rate constant of the pig heart LipDH (lipoamide dehydrogenase) catalyzed NADH oxidation.
Reported values of k cat/Km for individual entries
quantity.name: k cat/Km

1) CC1=C(CCC(=O)NCCCN2CCN(C)CC2)C(=O)c2ccccc2C1=O : 2.6 10e4 M-1 s-1
2) CC1=C(CCCNC(=O)OC(C)(C)C)C(=O)c2c(O)cccc2C1=O : 3.5 10e4 M-1 s-1
3) CC1=C(CCC(=O)O)C(=O)c2c(O)cccc2C1=O : 2.4 10e4 M-1 s-1
4) CC1=CC(=O)c2c(O)cccc2C1=O : 29 10e4 M-1 s-1
5) CC1=C(CCC(=O)NCCCN2CCN(C)CC2)C(=O)c2c(O)cccc2C1=O : 6.1 10e4 M-1 s-1
6) CC1=C(CCCNC(=O)OC(C)(C)C)C(=O)c2ccccc2C1=O : 3.4 10e4 M-1 s-1

====

- system.name: Trypanothione reductase (Trypanosoma cruzi)
- protocol.notes: The second order rate constant of the TcTR (Trypanosoma cruzi trypanothione reductase) catalyzed […].
quantity.name: k cat/Km

1. CC1=C(CCCCCC(=O)NCCCCNCCCNC(=O)CCCCCC2=C(C)C(=O)c3ccccc3C2=O)C(=O)c2ccccc2C1=O : 4.8 10e4 M-1 s-1
2. CC1=C(CCCCCC(=O)NCCCNCCCNC(=O)CCCCCC2=C(C)C(=O)c3cccc(O)c3C2=O)C(=O)c2c(O)cccc2C1=O : 14.5 10e4 M-1 s-1
3. CC1=C(CCC(=O)NCCCN2CCN(CCCNC(=O)CCC3=C(C)C(=O)c4cccc(O)c4C3=O)CC2)C(=O)c2c(O)cccc2C1=O : 5.1 10e4 M-1 s-1
4. CC1=C(CCCC(=O)NCCCCNCCCNC(=O)CCCC2=C(C)C(=O)c3cccc(O)c3C2=O)C(=O)c2c(O)cccc2C1=O : 3.6 10e4 M-1 s-1
5. CC1=C(CCCCCC(=O)NCCCN2CCN(CCCNC(=O)CCCCCC3=C(C)C(=O)c4ccccc4C3=O)CC2)C(=O)c2ccccc2C1=O : 3.3 10e4 M-1 s-1
6. CC1=C(CCC(=O)NCCCCNCCCNC(=O)CCC2=C(C)C(=O)c3cccc(O)c3C2=O)C(=O)c2c(O)cccc2C1=O : 7.7 10e4 M-1 s-1
7. CC1=C(CCCCC(=O)NCCCNCCCNC(=O)CCCCC2=C(C)C(=O)c3ccccc3C2=O)C(=O)c2ccccc2C1=O : 0.8 10e4 M-1 s-1
8. CC1=C(CCCCC(=O)NCCCCNCCCNC(=O)CCCCC2=C(C)C(=O)c3cccc(O)c3C2=O)C(=O)c2c(O)cccc2C1=O : 13 10e4 M-1 s-1
9. CC1=C(CCCCC(=O)NCCCN2CCN(CCCNC(=O)CCCCC3=C(C)C(=O)c4ccccc4C3=O)CC2)C(=O)c2ccccc2C1=O : 8.4 10e4 M-1 s-1

====

Reported values of ED50 for individual entries
- System: Leishmania donovani
- protocol.notes: In vitro antiparasitic activity against Leishmania donovani was tested by sigmoidal regression analysis
- Type: functional
quantity.name: ED50

1. CC1=C(CCCCCC(=O)O)C(=O)c2c(O)cccc2C1=O : 28 µM
2. CC1=C(CCNC(=O)OC(C)(C)C)C(=O)c2ccccc2C1=O : 8.8 µM
3. CC1=C(CCCC(=O)NCCCNCCCNC(=O)CCCC2=C(C)C(=O)c3ccccc3C2=O)C(=O)c2ccccc2C1=O : > 49 µM
4. CN1CCN(CCCNC(=O)CCC2=C(CCC(=O)NCCCN3CCN(C)CC3)C(=O)c3c(O)cccc3C2=O)CC1 : > 50 µM
5. CC1=C(CCCC(=O)NCCCN2CCN(C)CC2)C(=O)c2c(O)cccc2C1=O : 66 µM
6. O=C(O)CCC1=C(CCC(=O)O)C(=O)c2c(O)cccc2C1=O : > 93 µM
7. CC1=C(CCCCNC(=O)OC(C)(C)C)C(=O)c2c(O)cccc2C1=O : 14.2 µM
8. CN1CCN(CCCNC(=O)CCCCC2=C(CCCCC(=O)NCCCN3CCN(C)CC3)C(=O)c3c(O)cccc3C2=O)CC1 : 38.2 µM
9. CC1=C(CCCCC(=O)NCCCN2CCN(CCCNC(=O)CCCCC3=C(C)C(=O)c4cccc(O)c4C3=O)CC2)C(=O)c2c(O)cccc2C1=O : 29.6 µM
10. CC1=C(CCCCC(=O)NCCCNCCCNC(=O)CCCCC2=C(C)C(=O)c3cccc(O)c3C2=O)C(=O)c2c(O)cccc2C1=O : 11.1 µM
11. CC1=C(CCCCC(=O)NCCCCNCCCNC(=O)CCCCC2=C(C)C(=O)c3ccccc3C2=O)C(=O)c2ccccc2C1=O : 11.9 µM
12. CC1=C(CCCC(=O)NCCCN2CCN(CCCNC(=O)CCCC3=C(C)C(=O)c4ccccc4C3=O)CC2)C(=O)c2ccccc2C1=O : 14.7 µM
13. CC1=C(CCC(=O)N2CCN(C)CC2)C(=O)c2c(O)cccc2C1=O : > 88 µM
14. CC1=C(CCCC(=O)NCCCCNCCCNC(=O)CCCC2=C(C)C(=O)c3ccccc3C2=O)C(=O)c2ccccc2C1=O : > 48 µM
15. CC1=C(CCCCCC(=O)O)C(=O)c2ccccc2C1=O : 18 µM
16. CC1=C(CCC(=O)NCCCN2CCN(C)CC2)C(=O)c2ccccc2C1=O : > 30 µM
17. CC1=C(CCCC(=O)NCCCCNCCCNC(=O)CCCC2=C(C)C(=O)c3cccc(O)c3C2=O)C(=O)c2c(O)cccc2C1=O : > 46 µM
18. CC1=C(NCCCNCCCN)C(=O)c2c(O)cccc2C1=O : > 30 µM
